Test system: OVCAR-4 ovarian
Test: NCI tumour cell line growth inhibition, 48 h
metric: GI50

# input molecule: O=C1NC(=NCCc2cccs2)S/C1=C\c1ccc2ncccc2c1 ; wanted: its GI50
13.2 µM

----------
System: MOLT-4 leukemia
Test: NCI tumour cell line growth inhibition, 48 h
The following molecules are shown together with reported TGI values.

The following molecules have reported results that may help.
>>> reported_result("CN(C)C=C1C(=O)N(C)C(=O)N(C)C1=O")
"> 100 µM"
>>> reported_result("Cc1ccc(O)c(N=Nc2c(O)cc(S(=O)(=O)O)c3ccccc23)c1")
"95.3 µM"
>>> reported_result("C[C@]12CC(c3ccccc3O1)C(C(N)=O)C(=O)N2 (stereo partly specified)")
"> 100 µM"
>>> reported_result("Nc1nc[n+](Cc2ccccc2CCO)c2nc[nH]c12")
"> 100 µM"
>>> reported_result("COc1ccccc1N=Nc1c(-c2ccccc2)nn(C(=O)CC(=O)Nc2ccccc2Cl)c1-c1ccccc1")
"> 100 µM"

// next item, TGI requested
# input molecule: C=CCN(C(=O)OC(C)(C)C)C1=CC2C(C)=CN(S(=O)(=O)c3ccccc3)C2C(OCc2ccccc2)=C1 (stereo unspecified) ; wanted: its TGI
> 100 µM

Where these numbers come from: PubChem BioAssay (NCI)
